Target: human glucagon receptor (human, UniProt P47871 26-477)
Sequence (P47871 26-477): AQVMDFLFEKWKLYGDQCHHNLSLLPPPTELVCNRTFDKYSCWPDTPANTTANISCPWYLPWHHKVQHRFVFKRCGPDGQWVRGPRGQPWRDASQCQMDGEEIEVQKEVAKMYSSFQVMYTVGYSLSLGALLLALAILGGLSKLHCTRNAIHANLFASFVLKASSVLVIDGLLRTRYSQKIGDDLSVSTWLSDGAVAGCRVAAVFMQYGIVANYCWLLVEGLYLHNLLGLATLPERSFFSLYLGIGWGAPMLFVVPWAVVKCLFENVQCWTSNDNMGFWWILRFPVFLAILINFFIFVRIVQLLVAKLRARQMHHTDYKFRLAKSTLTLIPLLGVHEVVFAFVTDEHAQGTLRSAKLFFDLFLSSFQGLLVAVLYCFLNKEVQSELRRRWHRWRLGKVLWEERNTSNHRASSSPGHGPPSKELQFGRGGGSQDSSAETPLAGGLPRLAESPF
Assay: cell-based or functional assay
*1 amine or outer side, *2 acyl side, *3 side chain or, on linkers, in order; H or OH if unused. Where no end group is shown, it is not given here. Side-chain parts run from the residue outwards. [ ]: non-standard residue; d: D form. The star is where a group is joined. γGlu = O=C(O)[C@H](CCC(=O)[*:2])N[*:1]; Palmitoyl = CCCCCCCCCCCCCCCC(=O)*
Assay readout: hGCGR/hGLP1R (hTone): ratio of cAMP EC50 at human GCGR to cAMP EC50 at human GLP1R (ratio)
Reply with just the number (in ratio).

- Binder: "HXQGTXTSDKSKYLDERAAQDFVQWLLDT (D-Ser at 2; threo-β-phenylserine (tβP) at 6; Lys 10 conjugated to γEγE-C16 (palmitoyl); C-terminal amide) [Co-agonist Peptide 14]"
  Numeric value: 1.02
- Binder: "H[dS]QGTFTSDK([γGlu-γGlu-Palmitoyl])SKYLDVRRAQDFVQWLLDT-NH2 (not fully specified; printed as HsQGTFTSDK(γEγEC16)SKYLDVRRAQDFVQWLLDT-NH2) [Co-agonist Peptide 2]"
  Numeric value: 0.3

Here is the next item to consider.
Asked: Consider the binder HXQGTFTSDKSKYLDERAAQDFVQWLXDT (D-Ser at 2; Lys 10 conjugated to γEγE-C16 (palmitoyl); methionine sulfone at 27; C-terminal amide) [Co-agonist Peptide 10] and give its measured hGCGR/hGLP1R (hTone): ratio of cAMP EC50 at human GCGR to cAMP EC50 at human GLP1R.
Given back: 1.1
